# testSystem: T1, YagL-H6 (Escherichia coli, UniProt P77607 1-232)
# T1 sequence: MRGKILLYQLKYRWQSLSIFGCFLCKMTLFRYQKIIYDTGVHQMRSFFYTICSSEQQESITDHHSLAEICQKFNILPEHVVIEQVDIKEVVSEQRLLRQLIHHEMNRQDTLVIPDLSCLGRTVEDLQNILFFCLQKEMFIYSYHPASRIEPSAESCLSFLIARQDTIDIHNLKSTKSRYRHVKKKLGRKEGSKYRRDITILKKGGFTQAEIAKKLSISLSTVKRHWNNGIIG
# testName: filter binding; 75 mM Tris-HCl pH 7.5, 0.4 mM spermidine, 0.1 mM MgCl2, 50 mM NaCl, 0.5 mM EDTA, 0.25 mM DTT, 6% glycerol; 10 min at room temperature; 50 fmol RNA in 60 µL, protein 0-10 µM
# testContext: protein: recombinant; label: 5'-32P (printed as [31]P); hairpin
quantity: Kd (nM)
The reply should contain only the number, in nM.

[Q] Please look up its Kd: GCUCUAGAGCAUUAUGUUCAGAUAAGG (structured_RNA) [hairpin]
[A] 2400
